Recorded IC50 values (c-Kit kinase (Homo sapiens, UniProt P10721)) are given below.
reportedEndpoint: IC50

{"compound": "O=C(NCc1cccc(-c2cccnc2Cl)c1)Nc1ccc(Cl)c(C(F)(F)F)c1", "reportedEndpoint": "IC50", "result": "50 to 500 nM"}
{"compound": "Cc1nnnn1-c1cccc(OCC(=O)Nc2ccc(Cl)c(C(F)(F)F)c2)c1", "reportedEndpoint": "IC50", "result": "500 to 5000 nM"}
{"compound": "COc1ccc(Cl)cc1NC(=O)OCc1cccc(-c2cccnc2)c1", "reportedEndpoint": "IC50", "result": "500 to 5000 nM"}
{"compound": "CC(C)(C)OC(=O)N1CCN(C(=O)c2nc(-c3ccc(CNC(=O)Nc4ccc(Cl)c(C(F)(F)F)c4)cc3)cnc2N)CC1", "reportedEndpoint": "IC50", "result": "500 to 5000 nM"}
{"compound": "O=C(NC(=O)c1cccc(-n2cnnn2)c1)Nc1ccc(Cl)c(C(F)(F)F)c1", "reportedEndpoint": "IC50", "result": "500 to 5000 nM"}
{"compound": "Nc1ncc(-c2cccc(CNC(=O)Nc3ccc(Cl)c(C(F)(F)F)c3)c2)nc1C(=O)NC1CCCNC1 (centres unmarked)", "reportedEndpoint": "IC50", "result": "50 to 500 nM"}
{"compound": "COc1cncc(-c2cccc(COC(=O)Nc3ccc(Cl)c(C(F)(F)F)c3)c2)c1", "reportedEndpoint": "IC50", "result": "50 to 500 nM"}
{"compound": "Cc1ccc(-c2cccc(COC(=O)Nc3ccc(Cl)c(C(F)(F)F)c3)c2)c(C)n1", "reportedEndpoint": "IC50", "result": "500 to 5000 nM"}
